test: small-molecule binders of probe aNOTCH3, primary screen, biochemical, small-molecule microarray, 635/667 nm fluorescence (AID 1120); conditions: higher = more signal;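 note: probe is a biotin-tagged antibody raised against NOTCH3 rather than NOTCH3 protein; score merges spot fluorescence near 667 nm with spot signal to noise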
Hi there, I'd appreciate the recorded composite z-score for every entry that follows.

Documented composite z-score of CN1C2C=C(CCCO)C(C3C(=O)N(C(N)=O)C(=O)C32)C1c1ccc(CN2CCCC2)cc1 (stereo not given) : -0.326

Documented composite z-score of `CCOC(=O)C[C@H]1[C@H](OC(=O)Cc2ccc3c(c2)OCO3)[C@@H](NC(=O)c2ccc3ccccc3c2)c2cc(OCCCO)ccc2N1C(=O)c1ccccc1` : -0.0077

Documented composite z-score of `COC(=O)[C@@]1(Cc2ccc(OC)cc2)[C@H]2c3cc(C(=O)N4CCCC4)n(Cc4ccc(OC)c(OC)c4)c3C[C@H]2CN1C(=O)c1ccccc1` : 1.28

Documented composite z-score of CC(=O)n1cc(C(O)C2C=CC3C(=O)N(C)C(=O)C3N2Nc2ccccc2)c2ccccc21 (stereo not given) : 0.235

Documented composite z-score of `C=CC[C@@]1(C(N)=O)N=C(c2ccc(OCCCO)cc2)O[C@@H]1c1ccccc1CN=[N+]=[N-]` : 0.185

Documented composite z-score of CN1C(=O)C2C=CC(C(O)c3ccc(-c4ccccc4)s3)N(N(c3ccccc3)c3ccccc3)C2C1=O (stereo not given) : -0.0865

Documented composite z-score of CN1C(=O)C2C=CC(C(O)c3cc(C(F)(F)F)cc(C(F)(F)F)c3)N(N3CCCCC3)C2C1=O (stereo not given) : 0.0488

Documented composite z-score of O=C1C2C=CC(C(O)c3c(F)cccc3Cl)N(Nc3ccccc3)C2C(=O)N1c1ccccc1 (stereo not given) : 0.418

Documented composite z-score of CC1CC/C=C\[C@H]2OC34C=CCN(C(C)(C)C)C(=O)[C@H]3N(CCCCCCO)C(=O)[C@@H]4C2C(=O)O1 (stereo not given in full) : -0.295

Documented composite z-score of CCN(CC)c1ccc(N2CC=CC34O[C@@H]5/C=C\CCC(C)OC(=O)C5[C@H]3C(=O)N(C(CO)C(C)C)[C@@H]4C2=O)cc1 (stereo not given in full) : -0.222
